- System name: UniProtKB P41143
- Sequence (P41143 whole entry): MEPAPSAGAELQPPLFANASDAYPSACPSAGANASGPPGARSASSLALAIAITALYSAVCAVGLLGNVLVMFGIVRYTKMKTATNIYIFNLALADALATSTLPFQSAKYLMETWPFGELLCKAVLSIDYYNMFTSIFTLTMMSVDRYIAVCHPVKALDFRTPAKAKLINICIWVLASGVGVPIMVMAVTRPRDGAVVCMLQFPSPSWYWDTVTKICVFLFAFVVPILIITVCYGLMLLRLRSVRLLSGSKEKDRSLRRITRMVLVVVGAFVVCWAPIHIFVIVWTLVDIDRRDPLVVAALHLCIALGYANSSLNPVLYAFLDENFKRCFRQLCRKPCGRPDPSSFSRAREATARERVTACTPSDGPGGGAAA
- Method summary: radioligand displacement
pKi: −log10 of the molar value.
Measured quantity: pKi

Problem: # input molecule: CN1c2ccccc2C(NCCCCCCC(=O)O)c2ccc(Cl)cc2S1(=O)=O (stereo not shown) ; wanted: its pKi
Result: < 5.00

====

- System name: UniProtKB P35372
- Sequence (P35372 whole entry): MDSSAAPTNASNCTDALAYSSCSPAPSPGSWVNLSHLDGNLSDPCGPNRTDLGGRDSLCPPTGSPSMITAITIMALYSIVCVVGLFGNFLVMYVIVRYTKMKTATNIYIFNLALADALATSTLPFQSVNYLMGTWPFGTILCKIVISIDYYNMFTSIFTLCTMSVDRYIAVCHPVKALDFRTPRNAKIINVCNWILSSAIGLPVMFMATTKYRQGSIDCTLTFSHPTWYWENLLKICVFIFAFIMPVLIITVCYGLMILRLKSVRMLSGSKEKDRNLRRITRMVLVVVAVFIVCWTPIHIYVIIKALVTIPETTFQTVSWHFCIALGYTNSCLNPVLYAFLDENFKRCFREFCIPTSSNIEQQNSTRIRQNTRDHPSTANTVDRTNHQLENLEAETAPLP
Measured quantity: pKi
Interpret pKi as the negative base-10 log of the concentration measured in mol/L.

Problem: Give the reported pKi for CN1c2ccccc2C(NCCCCCCC(=O)O)c2ccc(Cl)cc2S1(=O)=O (stereo not shown) [tianeptine] (system: UniProtKB P35372).
Result: 6.42

====

- System name: mDOR (mouse δ-opioid receptor) (Mus musculus, UniProt P32300)
- Sequence (P32300 whole entry): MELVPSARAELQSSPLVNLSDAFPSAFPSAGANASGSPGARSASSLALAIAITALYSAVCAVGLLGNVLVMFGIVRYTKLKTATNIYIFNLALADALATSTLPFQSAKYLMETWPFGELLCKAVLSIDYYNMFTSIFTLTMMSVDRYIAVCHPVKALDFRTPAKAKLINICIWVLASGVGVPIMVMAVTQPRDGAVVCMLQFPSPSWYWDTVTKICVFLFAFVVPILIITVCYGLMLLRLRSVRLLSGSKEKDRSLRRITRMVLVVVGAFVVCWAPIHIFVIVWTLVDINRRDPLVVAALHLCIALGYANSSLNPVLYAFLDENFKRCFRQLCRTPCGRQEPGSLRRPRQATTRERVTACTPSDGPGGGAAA
- Method summary: BRET G-protein activation, HEK-293T
Measured quantity: EC50 (µM)
Write down the numeric answer in µM and omit the unit.

Problem: Give the reported EC50 for CN1c2ccccc2C(NCCCCCCC(=O)O)c2ccc(Cl)cc2S1(=O)=O (stereo not shown) [tianeptine] (system: mDOR (mouse δ-opioid receptor) (Mus musculus, UniProt P32300)).
Result: 14.5

====

- System name: rKOR (rat κ-opioid receptor) (Rattus norvegicus)
- Sequence (P34975 whole entry): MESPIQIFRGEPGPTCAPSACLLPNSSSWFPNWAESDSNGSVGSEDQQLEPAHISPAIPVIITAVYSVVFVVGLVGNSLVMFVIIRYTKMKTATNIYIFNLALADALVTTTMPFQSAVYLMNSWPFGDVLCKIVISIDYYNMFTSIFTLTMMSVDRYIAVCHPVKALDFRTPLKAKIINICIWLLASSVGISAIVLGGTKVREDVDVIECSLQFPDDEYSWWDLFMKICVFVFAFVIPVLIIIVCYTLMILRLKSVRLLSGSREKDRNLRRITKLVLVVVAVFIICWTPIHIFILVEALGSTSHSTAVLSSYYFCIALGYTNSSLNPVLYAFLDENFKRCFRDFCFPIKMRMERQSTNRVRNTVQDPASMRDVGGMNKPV
- Method summary: BRET CAMYEL cAMP assay, HEK-293T
Measured quantity: pIC50
Interpret pIC50 as the negative base-10 log of the concentration measured in mol/L.

Problem: # input molecule: Oc1ccc2c3c1O[C@H]1c4[nH]c5c(c4C[C@@]4(O)[C@@H](C2)N(CC2CC2)CC[C@]314)C[C@@]1(O)[C@H]2Cc3ccc(O)c4c3[C@@]1(CCN2CC1CC1)[C@H]5O4 [nor-binaltorphimine] ; wanted: its pIC50
Result: 7.55
